Cited source: PubChem BioAssay (NCI)

Each entry below carries its recorded growth.
tested on: T-47D breast; assay: NCI-60 one-dose screen, 48 h (100 = growth as untreated, 0 = no growth, -100 = all killed); conditions: 10 µM unless noted
Compounds without any hit were thinned out: in the full panel of roughly 83,000, 20% have a hit.
measured_attribute: growth (%)

{"molecule": "CCCCOc1nc2ccc(Cl)cc2cc1/C=C/C(=O)/C=C/c1ccc(OC)cc1", "measured_attribute": "growth", "measured_result": 86.8}
{"molecule": "CC(C)C(=O)Nc1nc2c(s1)CCCc1ccn(S(=O)(=O)c3ccccc3)c1-2", "measured_attribute": "growth", "measured_result": 91.9}
{"molecule": "CNCCCOc1c(Br)cc(CCNC(=O)/C(Cc2ccc(OC)c(Br)c2)=N/O)cc1Br", "measured_attribute": "growth", "measured_result": 54.7}
{"molecule": "C=C1C(=O)O[C@H]2[C@H]1CC/C(C(=O)Nc1ccc(OC)c(C(N)=O)c1O)=C\\CC[C@@]1(C)O[C@@H]21", "measured_attribute": "growth", "measured_result": 16.9}
{"molecule": "O=C(Nc1ccc(-n2ccc3c(NC(=O)c4ccccc4)ncnc32)cc1)Nc1ccc(Cl)c(Cl)c1", "measured_attribute": "growth", "measured_result": 33.5}
{"molecule": "CN(C)CC/C=C1\\c2ccccc2Sc2ccc(Cl)cc21", "measured_attribute": "growth", "measured_result": 70.7}
{"molecule": "Nc1nccc2c1ccn2-c1ccc(NC(=O)Nc2cccc(C(F)(F)F)c2)cc1", "measured_attribute": "growth", "measured_result": 85.1}
{"molecule": "Cc1cn(C2CC(N=[N+]=[N-])C(COP(=O)(O)OP(=O)(O)OP(=O)(O)O)O2)c(=O)[nH]c1=O (stereo not drawn)", "measured_attribute": "growth", "measured_result": 111}
{"molecule": "CCN(CC)CCC(C(=O)O)(c1ccccc1)c1ccccc1", "measured_attribute": "growth", "measured_result": 77.7}
{"molecule": "O=[N+]([O-])c1ccc(NS(=O)(=O)c2cc(Cl)ccc2Cl)c2ccccc12", "measured_attribute": "growth", "measured_result": 56}
{"molecule": "O=[N+]([O-])c1ccccc1NC1c2ccccc2Oc2ccccc21", "measured_attribute": "growth", "measured_result": 76.5}
{"molecule": "NC(=O)C1=C[C@H]2[C@H]3C=C[C@@]2(O)C(=O)O[C@@H]3O1", "measured_attribute": "growth", "measured_result": 38.2}
{"molecule": "COc1cc(C(=O)C[n+]2ccccc2)ccc1OC(C)=O", "measured_attribute": "growth", "measured_result": 103}
{"molecule": "Cc1ccc(NC(=O)CN2CCOCC2)cc1Cl", "measured_attribute": "growth", "measured_result": 88.7}
{"molecule": "C=CC(=O)NC(=O)Nc1ccccc1Cl", "measured_attribute": "growth", "measured_result": 65.8}
{"molecule": "c1nc(SC2=NCCN2)c2[nH]cnc2n1", "measured_attribute": "growth", "measured_result": 21.8}
{"molecule": "c1ccc2nc(Cn3cc[n+](Cc4ccc5ccccc5n4)c3)ccc2c1", "measured_attribute": "growth", "measured_result": 29.8}
{"molecule": "Cc1ccc2[nH]c3nc4cccnc4c(C)c3c2c1", "measured_attribute": "growth", "measured_result": 14.2}
{"molecule": "CC[C@@]1(O)C(=O)OCc2c1cc1n(c2=O)Cc2c-1nc1ccccc1c2/C=N/OC(C)(C)C", "measured_attribute": "growth", "measured_result": 2.25}
{"molecule": "COc1ccccc1S(=O)(=O)Nc1ccc2c3c(cc(-c4cnn(C5CC5)c4)nc13)C(=O)N2C", "measured_attribute": "growth", "measured_result": 69.9}
{"molecule": "O=C(O)c1ccc2nc(-c3ccc(OCCCCCOc4ccc(-c5nc6ccc(C(=O)O)cc6[nH]5)cc4)cc3)[nH]c2c1", "measured_attribute": "growth", "measured_result": 51.2}
{"molecule": "Cc1cn(-c2cc(C(=O)Nc3cccc(-n4ccc5c(NC(=O)c6ccccc6)nccc54)c3)cc(C(F)(F)F)c2)cn1", "measured_attribute": "growth", "measured_result": 62.5}
{"molecule": "CC1(C)Cc2c(Br)c(Br)c(Br)c(OCC(O)CN3CCN(c4ccccn4)CC3)c2O1 (stereo not drawn)", "measured_attribute": "growth", "measured_result": 88.5}
